biological target: JAK3 (Homo sapiens); construct: 5 μl of catalytic domain recombinant Kinase enzyme+Tyr peptide substrate (Invitrogen, Calif.); assay: Z'-LYTE kinase assay, JAK3 tyrosine phosphorylation activity
Sequence (P52333 822-1111 limits assumed): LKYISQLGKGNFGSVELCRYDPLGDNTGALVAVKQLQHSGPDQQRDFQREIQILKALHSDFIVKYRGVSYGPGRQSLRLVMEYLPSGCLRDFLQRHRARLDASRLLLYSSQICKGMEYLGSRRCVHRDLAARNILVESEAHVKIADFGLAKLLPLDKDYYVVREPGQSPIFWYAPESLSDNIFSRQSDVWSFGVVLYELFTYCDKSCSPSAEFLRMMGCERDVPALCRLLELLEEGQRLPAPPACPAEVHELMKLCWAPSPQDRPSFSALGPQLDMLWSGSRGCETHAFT
Parameter: IC50

Some compounds with known IC50 results, for comparison:
Compound | IC50
NC(=O)c1cnc(Nc2cccc(NC(=O)N3CC[C@H](O)C3)c2)nc1NCc1ccccc1 [Example 143] | 1 to 10 nM
CNC(=O)Nc1cc(Nc2ncc(C(N)=O)c(NCc3ccccc3F)n2)ccc1Cl [Example 169] | 1 to 10 nM
NC(=O)c1cnc(Nc2cccc(NC(=O)N3CCCC3)c2)nc1NCc1ccccc1 [Example 40] | < 1 nM

What does the data say about its IC50? Entry: CC(=O)Nc1cccc(Nc2ncc(C(N)=O)c(Nc3ccc(NC(=O)C4(C#N)CC4)cc3)n2)c1 [Example 302]
10 to 100 nM

What does the data say about its IC50? Entry: CC(C)CNc1nc(Nc2ccc(Cl)c(NC(=O)N3CCCC3)c2)ncc1C(N)=O [Example 236]
10 to 100 nM

What does the data say about its IC50? Entry: CN(C(=O)N1CCCC1)c1cc(Nc2ncc(C(N)=O)c(NCc3cccc(F)c3)n2)ccc1Cl [Example 242]
100 to 1000 nM
